target: Transient receptor potential cation channel subfamily M member 7 (Mus musculus, UniProt Q923J1); experiment: Inhibition of N-terminal Flag-tagged mouse TRPM7 expressed in HEK293T cells assessed as reduction in whole cell currents by whole-cell patch clamp assay
Sequence (Q923J1 whole entry): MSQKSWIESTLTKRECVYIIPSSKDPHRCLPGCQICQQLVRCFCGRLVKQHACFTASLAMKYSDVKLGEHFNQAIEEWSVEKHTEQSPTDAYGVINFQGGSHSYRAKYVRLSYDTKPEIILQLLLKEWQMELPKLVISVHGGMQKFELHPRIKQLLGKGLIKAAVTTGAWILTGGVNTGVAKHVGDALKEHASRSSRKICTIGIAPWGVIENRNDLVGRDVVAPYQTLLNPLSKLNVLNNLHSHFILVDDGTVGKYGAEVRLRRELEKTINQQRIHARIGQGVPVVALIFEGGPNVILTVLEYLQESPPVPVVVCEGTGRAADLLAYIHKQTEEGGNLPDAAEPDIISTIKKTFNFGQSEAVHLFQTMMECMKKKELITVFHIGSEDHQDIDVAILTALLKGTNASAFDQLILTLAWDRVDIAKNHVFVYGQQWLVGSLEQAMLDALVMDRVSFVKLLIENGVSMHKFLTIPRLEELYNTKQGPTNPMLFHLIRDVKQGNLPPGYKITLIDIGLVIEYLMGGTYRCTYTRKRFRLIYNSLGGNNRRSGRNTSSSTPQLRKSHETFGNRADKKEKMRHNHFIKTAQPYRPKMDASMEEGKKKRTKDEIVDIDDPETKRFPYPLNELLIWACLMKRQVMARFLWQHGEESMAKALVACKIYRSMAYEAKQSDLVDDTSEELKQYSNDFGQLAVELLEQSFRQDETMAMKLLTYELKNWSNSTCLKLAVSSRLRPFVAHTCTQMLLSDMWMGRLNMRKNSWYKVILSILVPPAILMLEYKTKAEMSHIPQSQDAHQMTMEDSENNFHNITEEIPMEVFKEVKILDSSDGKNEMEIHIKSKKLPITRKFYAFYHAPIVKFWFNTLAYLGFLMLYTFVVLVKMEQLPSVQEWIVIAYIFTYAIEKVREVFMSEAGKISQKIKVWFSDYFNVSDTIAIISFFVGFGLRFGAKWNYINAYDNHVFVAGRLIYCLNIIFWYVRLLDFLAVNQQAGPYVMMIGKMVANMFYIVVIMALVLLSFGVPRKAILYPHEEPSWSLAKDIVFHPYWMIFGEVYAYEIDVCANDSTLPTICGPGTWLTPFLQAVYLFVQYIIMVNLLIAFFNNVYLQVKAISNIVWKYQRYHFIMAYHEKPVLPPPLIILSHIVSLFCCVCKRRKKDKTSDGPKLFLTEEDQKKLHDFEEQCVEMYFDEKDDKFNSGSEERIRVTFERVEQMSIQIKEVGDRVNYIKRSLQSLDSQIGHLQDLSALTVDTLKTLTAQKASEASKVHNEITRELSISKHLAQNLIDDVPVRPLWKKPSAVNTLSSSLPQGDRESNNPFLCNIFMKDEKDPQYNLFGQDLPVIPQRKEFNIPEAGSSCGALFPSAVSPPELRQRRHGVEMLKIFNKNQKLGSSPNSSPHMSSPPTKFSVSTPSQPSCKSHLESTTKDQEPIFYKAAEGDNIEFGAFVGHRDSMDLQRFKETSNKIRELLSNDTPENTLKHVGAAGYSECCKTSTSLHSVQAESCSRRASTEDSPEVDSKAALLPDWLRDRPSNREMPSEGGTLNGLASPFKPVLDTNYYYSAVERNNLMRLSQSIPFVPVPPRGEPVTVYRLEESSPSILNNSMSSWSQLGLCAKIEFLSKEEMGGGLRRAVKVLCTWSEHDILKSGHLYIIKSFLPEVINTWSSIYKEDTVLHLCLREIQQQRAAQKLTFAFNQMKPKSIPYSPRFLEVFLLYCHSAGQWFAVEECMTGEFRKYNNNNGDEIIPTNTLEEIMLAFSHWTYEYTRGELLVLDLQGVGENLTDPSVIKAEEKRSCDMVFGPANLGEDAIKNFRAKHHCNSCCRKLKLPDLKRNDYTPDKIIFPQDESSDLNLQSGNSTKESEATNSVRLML
measure name: IC50 (µM)
// note: answer is a bare numeric in µM

Name the reported IC50 value associated with the compound COc1ccc2c(c1)CCN=C2c1sc2ccccc2c1Cl
5

----------
test: Antiproliferative activity against human WERI cells assessed as inhibition of cell proliferation by propidium iodide uptake based fluoroskan microplate reader analysis; assay type: functional
measure name: pIC50
Field pIC50 (float): negative decimal logarithm of the concentration in molar.

Name the reported pIC50 value associated with the compound Cc1ccc2c(c1)CCCN2C(=O)c1sc2cccc(F)c2c1Cl
5.48

Name the reported pIC50 value associated with the compound CN(Cc1ccccc1N1CCCC1)C(=O)c1sc2ccccc2c1Cl
5.46

Name the reported pIC50 value associated with the compound O=C(c1sc2ccccc2c1Cl)N1CCCc2cc(Cl)ccc21
5.43

Name the reported pIC50 value associated with the compound Cc1ccc2c(c1)CCCN2C(=O)c1sc2ccc(F)cc2c1Cl
5.34

Name the reported pIC50 value associated with the compound Cc1c(Cc2ccc(Cl)c(Cl)c2)c(=O)oc2cc(O)c(F)cc12
5.39

Name the reported pIC50 value associated with the compound COc1cc(OC)c2c(C)c(Cc3cccc(Cl)c3)c(=O)oc2c1
6.11

----------
assay: Antiproliferative activity against human WERI cells assessed as inhibition of cell proliferation by propidium iodide uptake based fluoroskan microplate reader analysis; type: functional
Provide the recorded IC50 for the entries that follow.
// note: answer is a bare numeric in µM

Name the reported IC50 value associated with the molecule COc1ccc(C)c(N(Cc2cccnc2)C(=O)c2sc3ccccc3c2Cl)c1
2.37

Name the reported IC50 value associated with the molecule COc1ccc2c(c1)C(c1sc3cccc(C)c3c1Cl)=NCC2
1.31

Name the reported IC50 value associated with the molecule COc1cc2c(cc1OC)C(c1sc3cccc(C)c3c1Cl)=NCC2
0.34

Name the reported IC50 value associated with the molecule Cc1ccc(N(C)C(=O)c2sc3ccccc3c2Cl)c(C)c1
4.57

Name the reported IC50 value associated with the molecule COc1cc2c(cc1OC)C(c1sc3ccccc3c1Cl)NCC2 (stereo not given)
0.08

----------
assay: Antiproliferative activity against human WERI cells assessed as inhibition of cell proliferation by measuring normalized ratio of propidium iodide uptake at 10 uM by propidium iodide uptake based fluoroskan microplate reader analysis; format: functional
Provide the recorded Ratio for the entries that follow.

Name the reported Ratio value associated with the molecule CCCc1c(Cc2cccc(Cl)c2)c(=O)[nH]c2cc(OC)cc(OC)c12
0.037

Name the reported Ratio value associated with the molecule COc1cc2c(cc1OC)C(c1sc3ccccc3c1Cl)=NCC2
0

Name the reported Ratio value associated with the molecule O=C(c1sc2ccccc2c1Cl)N1CCCc2cc(Cl)ccc21
0.049

Name the reported Ratio value associated with the molecule Clc1cccc2c1CCN=C2c1sc2ccccc2c1Cl
0.1

Name the reported Ratio value associated with the molecule COc1cc2c(cc1OC)C(c1sc3cccc(C)c3c1Cl)=NCC2
0.028

Name the reported Ratio value associated with the molecule COc1ccc2c(c1)C(c1sc3ccccc3c1Cl)=NCC2
0.07

Name the reported Ratio value associated with the molecule Cc1ccc2c(c1)CCN=C2c1sc2ccccc2c1Cl
0.003

Name the reported Ratio value associated with the molecule COc1ccc(C)c(N(Cc2ccncc2)C(=O)c2sc3ccccc3c2Cl)c1
0.228

Name the reported Ratio value associated with the molecule COc1cc2c(cc1OC)CN(C(=O)c1sc3ccccc3c1Cl)CC2
0.024

Name the reported Ratio value associated with the molecule COc1ccc(C(=O)c2sc3ccccc3c2Cl)cc1
0.063

Name the reported Ratio value associated with the molecule COc1ccc2c(c1)CCCN2C(=O)c1sc2ccccc2c1Cl
0.276

Name the reported Ratio value associated with the molecule Cc1c(Cc2cccc(Cl)c2)c(=O)oc2cc(O)ccc12
0.041

Name the reported Ratio value associated with the molecule CN(Cc1ccccc1N1CCCC1)C(=O)c1sc2ccccc2c1Cl
0.043

Name the reported Ratio value associated with the molecule Fc1ccc2c(c1)CCCN2Cc1sc2ccccc2c1Cl
0.098

Name the reported Ratio value associated with the molecule COc1ccc2c(c1)CCN(C)C2c1sc2ccccc2c1Cl (stereo not drawn)
0.027

Name the reported Ratio value associated with the molecule COc1ccc(C)c(N(Cc2cccnc2)C(=O)c2sc3ccccc3c2Cl)c1
0.1

Name the reported Ratio value associated with the molecule COc1ccc2c(c1)CCNC2c1sc2ccccc2c1Cl (stereo not drawn)
0.003

Name the reported Ratio value associated with the molecule Cc1ccc2c(c1)CCCN2C(=O)c1[nH]c2ccccc2c1Cl
0.76

Name the reported Ratio value associated with the molecule Cc1c(Cc2c(F)cccc2Cl)c(=O)oc2cc(O)cc(O)c12
0.102

Name the reported Ratio value associated with the molecule COc1cc(OC)c2c(C)c(Cc3cccc(Cl)c3)c(=O)oc2c1
0.19

Name the reported Ratio value associated with the molecule COc1ccc2sc(C(=O)N3CCCc4cc(C)ccc43)c(Cl)c2c1
0.051

Name the reported Ratio value associated with the molecule Cc1ccc2c(c1)CCCN2C(=O)c1sc2cccc(C)c2c1Cl
0.4

Name the reported Ratio value associated with the molecule Cc1ccc2c(c1)CCCN2C(=O)c1sc2ccc(F)cc2c1Cl
0.064

Name the reported Ratio value associated with the molecule COc1cccc2c1CCN=C2c1sc2cccc(C)c2c1Cl
0.13

Name the reported Ratio value associated with the molecule COc1ccc2c(Cl)c(C(=O)N3CCCc4cc(C)ccc43)sc2c1
0.11

Name the reported Ratio value associated with the molecule COc1cc2c(cc1OC)C(c1sc3ccccc3c1Cl)N(C)CC2 (stereo not drawn)
0

Name the reported Ratio value associated with the molecule COc1cc2c(cc1OC)C(c1sc3ccccc3c1Cl)NCC2 (stereo not drawn)
0

Name the reported Ratio value associated with the molecule COc1ccc2c(c1)C(c1sc3cccc(C)c3c1Cl)=NCC2
0.047

Name the reported Ratio value associated with the molecule Cc1ccc(N(Cc2cccc(C)n2)C(=O)c2sc3ccccc3c2Cl)c(C)c1
0.1

Name the reported Ratio value associated with the molecule Cc1c(Cc2ccc(Cl)c(Cl)c2)c(=O)oc2cc(O)c(F)cc12
0.002

Name the reported Ratio value associated with the molecule COc1cc2c(cc1OC)C(c1sc3cccc(F)c3c1Cl)NCC2 (stereo not drawn)
0

Name the reported Ratio value associated with the molecule O=C(NCc1ccccc1N1CCCC1)c1sc2ccccc2c1Cl
0.375

Name the reported Ratio value associated with the molecule Cc1ccc(S(=O)(=O)Nc2sc3ccccc3c2Cl)cc1
0.121
